- target_or_test_system: HCoV-OC43 Mpro (Human coronavirus OC43, UniProt P0C6X6)
- Sequence (P0C6X6 3247-3549 limits assumed): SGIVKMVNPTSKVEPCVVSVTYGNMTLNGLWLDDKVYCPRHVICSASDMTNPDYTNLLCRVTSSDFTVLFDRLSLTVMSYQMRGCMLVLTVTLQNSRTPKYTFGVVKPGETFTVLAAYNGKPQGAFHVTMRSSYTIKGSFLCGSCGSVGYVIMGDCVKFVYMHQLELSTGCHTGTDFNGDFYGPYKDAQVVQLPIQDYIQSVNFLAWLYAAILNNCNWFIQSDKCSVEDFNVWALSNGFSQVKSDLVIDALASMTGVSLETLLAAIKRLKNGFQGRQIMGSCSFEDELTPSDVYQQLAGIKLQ
- test_protocol: HCoV-OC43 Mpro enzymatic inhibition assay (fluorescence)
- Type: biochemical
pIC50: −log10 of the molar value.
Label y when pIC50 is at or above 7; anything below gets n.

Confirm if pIC50 reported for the compound CC(C)c1cccc2[nH]c(C(=O)N3C[C@H]4[C@@H]([C@H]3C(=O)N[C@H](C=O)C[C@@H]3CCNC3=O)C4(C)C)cc12 is 7 or above.
y

Decide: is the reported value of pIC50 for Cc1cccc2[nH]c(C(=O)N3C[C@H]4[C@@H]([C@H]3C(=O)N[C@H](C=O)C[C@@H]3CCNC3=O)C4(C)C)cc12 equal to or greater than 7?
y

Test whether the compound CC1(C)[C@@H]2[C@@H](C(=O)N[C@H](C=O)C[C@@H]3CCNC3=O)N(C(=O)c3cc4ccc(F)cc4[nH]3)C[C@@H]21 records pIC50 of 7 or higher.
y

pIC50 >= 7 for CC1(C)[C@@H]2[C@@H](C(=O)N[C@H](C=O)C[C@@H]3CCNC3=O)N(C(=O)Cc3ccccc3)C[C@@H]21 ?
y

Does CC1(C)[C@@H]2[C@@H](C(=O)N[C@H](C#N)C[C@@H]3CCNC3=O)N(C(=O)c3cc4c(F)ccc(Cl)c4[nH]3)C[C@@H]21 have a reported pIC50 of at least 7?
n

Kindly determine if pIC50 recorded for CC1(C)[C@@H]2[C@@H](C(=O)N[C@H](C=O)C[C@@H]3CCNC3=O)N(C(=O)C3(c4cccc(Cl)c4)CC3)C[C@@H]21 is above or exactly 7.
y

# check: pIC50 of O=C[C@H](C[C@@H]1CCNC1=O)NC(=O)[C@@H]1CCCN1C(=O)c1cc2ccccc2[nH]1 is greater than or equal to 7
n

Determine whether this compound has pIC50 no lower than 7: COc1ccc(Cl)c2[nH]c(C(=O)N3C[C@H]4[C@@H]([C@H]3C(=O)N[C@H](C=O)C[C@@H]3CCNC3=O)C4(C)C)cc12
y

I'd appreciate it if you could say whether CC1(C)[C@@H]2[C@@H](C(=O)N[C@H](C=O)C[C@@H]3CCNC3=O)N(C(=O)C3(c4ccccc4)CCCC3)C[C@@H]21 has pIC50 at least equal to 7.
y

Hello, I need to know if CC1(C)[C@@H]2[C@@H](C(=O)N[C@H](C#N)C[C@@H]3CCNC3=O)N(C(=O)C3(c4cccc(Cl)c4)CC3)C[C@@H]21 has measured pIC50 not below 7. Thanks!
n

Determine whether this compound has pIC50 no lower than 7: CC1(C)[C@@H]2[C@@H](C(=O)N[C@H](C=O)C[C@@H]3CCNC3=O)N(C(=O)CC3CCCCC3)C[C@@H]21
y

API: above_or_equal(metric=pIC50, cutoff=7) for item CC1(C)[C@@H]2[C@@H](C(=O)N[C@H](C=O)C[C@@H]3CCNC3=O)N(C(=O)CC3CCOCC3)C[C@@H]21
y

Given the entry CC1(C)[C@@H]2[C@@H](C(=O)N[C@H](C=O)C[C@@H]3CCNC3=O)N(C(=O)c3cc4c(C#N)cccc4[nH]3)C[C@@H]21 , answer whether its pIC50 meets or surpasses 7.
y

Say whether CC1(C)[C@@H]2[C@@H](C(=O)N[C@H](C=O)C[C@@H]3CCNC3=O)N(C(=O)Cc3ccc4c(c3)CCCC4)C[C@@H]21 shows pIC50 of 7 or more.
y

Reported pIC50 at or above 7? CC1(C)[C@@H]2[C@@H](C(=O)N[C@H](C=O)C[C@@H]3CCNC3=O)N(C(=O)c3cc4c(Cl)cccc4[nH]3)C[C@@H]21
y
